# credit: paper PMC10221074

Recorded Viability of infected cells relative to aprotinin, Replicate 3 by entry
# System: B/Malaysia/2506/2004 (B-Mal)
# Assay type: cell-based, influenza virus
Property Measured: Viability of infected cells relative to aprotinin, Replicate 3

{"Sequence Input": "DVVKSKVGQT [LS-AMP-A20]", "Val": 0.06088}
{"Sequence Input": "SLLGLLDVVKSKVGQTGLL [LS-AMP-A18]", "Val": 0.0512}
{"Sequence Input": "SLLGLLDVVKNKVGQIG [LS-AMP-A4]", "Val": 0.0764}
{"Sequence Input": "GSLLGLLDVVKSKVGQTGLL [LS-AMP-A19]", "Val": 0.04584}
{"Sequence Input": "SLLGLLDVVKSKIGQTG [LS-AMP-A14]", "Val": 0.1102}
{"Sequence Input": "SLFGLLDLVKNKVGQTGLL [LS-AMP-A2]", "Val": 0.06464}
{"Sequence Input": "SLLGLLDVVKNKVGQIGLL [LS-AMP-A3]", "Val": 0.08362}
{"Sequence Input": "SLLGLLDVVKNTVGQTGLL [LS-AMP-A8]", "Val": 0.06181}
{"Sequence Input": "LLDVVKSKIGQTGLL [LS-AMP-A16]", "Val": 0.03862}
{"Sequence Input": "SLFGLLDLVKSKVGQTGLL [LS-AMP-A1]", "Val": 0.05872}
{"Sequence Input": "SLLGLLDVVKSKIGQTGLL [LS-AMP-A13]", "Val": 0.0661}
{"Sequence Input": "SLLGLLDVVKNTVGQT [LS-AMP-A10]", "Val": 0.07183}
{"Sequence Input": "SLLGLLDVVKNTVGQ [LS-AMP-A11]", "Val": 0.0552}
{"Sequence Input": "SLLGLLDVVKNKVGQI [LS-AMP-A5]", "Val": 0.06301}
{"Sequence Input": "SLLGLLDVVKNTVGQTG [LS-AMP-A9]", "Val": 0.05846}
{"Sequence Input": "SLLGLLDVVKSKIGQT [LS-AMP-A15]", "Val": 0.05878}

----------
Reported Bacterial growth relative to medium, L. monocytogenes, replicate 3 values are given for each entry in this list.
# Tested on: Listeria monocytogenes DSM 20600
# Test Method Notes: Antibacterial growth assay (OD600)
# Condition Details: OD600, medium = 100, MH II broth, 37 °C, peptide 200 µM mixed 50 µL + 50 µL with bacteria; Figure 7: 48 h; replicate column 3
Property Measured: Bacterial growth relative to medium, L. monocytogenes, replicate 3

{"Sequence Input": "SLFGLLDLVKNKVGQTGLL [LS-AMP-A2]", "Val": 86.9442}
{"Sequence Input": "SLLGLLDVVKNTVGQ [LS-AMP-A11]", "Val": 84.2183}
{"Sequence Input": "SLFGLLDLVKSKVGQTGLL [LS-AMP-A1]", "Val": 102.296}

----------
Property: Bacterial growth relative to medium, L. monocytogenes, replicate 2; scope: individual sequences
# Test system: Listeria monocytogenes DSM 20600
# Test Method Notes: Antibacterial growth assay (OD600)
# Condition Details: OD600, medium = 100, MH II broth, 37 °C, peptide 200 µM mixed 50 µL + 50 µL with bacteria; Figure 7: 48 h; replicate column 2
Property Measured: Bacterial growth relative to medium, L. monocytogenes, replicate 2

{"Sequence Input": "SLLGLLDVVKNKVGQI [LS-AMP-A5]", "Val": 80.283}
{"Sequence Input": "SLLGLLDVVKNTVGQ [LS-AMP-A11]", "Val": 67.6393}
{"Sequence Input": "SLLGLLDVVKNTVGQTGLL [LS-AMP-A8]", "Val": 71.2645}
{"Sequence Input": "LLDVVKSKIGQTGLL [LS-AMP-A16]", "Val": 58.0902}
{"Sequence Input": "SLLGLLDVVKSKIGQTGLL [LS-AMP-A13]", "Val": 134.66}
{"Sequence Input": "SLLGLLDVVKSKVGQTGLL [LS-AMP-A18]", "Val": 105.128}
{"Sequence Input": "SLLGLLDVVKNTVGQT [LS-AMP-A10]", "Val": 78.161}
{"Sequence Input": "SLLGLLDVVKSKIGQT [LS-AMP-A15]", "Val": 92.1308}
{"Sequence Input": "SLLGLLDVVKNKVGQIG [LS-AMP-A4]", "Val": 64.3679}
{"Sequence Input": "GSLLGLLDVVKSKVGQTGLL [LS-AMP-A19]", "Val": 105.659}
{"Sequence Input": "SLLGLLDVVKSKIGQTG [LS-AMP-A14]", "Val": 82.6703}
{"Sequence Input": "SLLGLLDVVKNTVGQTG [LS-AMP-A9]", "Val": 67.4623}
{"Sequence Input": "SLFGLLDLVKSKVGQTGLL [LS-AMP-A1]", "Val": 90.3626}
{"Sequence Input": "DVVKSKVGQT [LS-AMP-A20]", "Val": 85.2342}
{"Sequence Input": "SLFGLLDLVKNKVGQTGLL [LS-AMP-A2]", "Val": 116.711}
{"Sequence Input": "SLLGLLDVVKNKVGQIGLL [LS-AMP-A3]", "Val": 117.418}

----------
sequences and their reported Bacterial growth relative to medium, S. aureus, replicate 2
# Tested on: Staphylococcus aureus DSM 2569
# Test Method Notes: Antibacterial growth assay (OD600)
# Condition Details: OD600, medium = 100, MH II broth, 37 °C, peptide 200 µM mixed 50 µL + 50 µL with bacteria; Figure 7: 48 h; replicate column 2
Property Measured: Bacterial growth relative to medium, S. aureus, replicate 2

{"Sequence Input": "SLLGLLDVVKSKIGQTGLL [LS-AMP-A13]", "Val": 81.2949}
{"Sequence Input": "SLLGLLDVVKSKIGQT [LS-AMP-A15]", "Val": 63.5709}
{"Sequence Input": "SLLGLLDVVKNKVGQI [LS-AMP-A5]", "Val": 62.917}

----------
# Tested on: A/Hamburg/05/2009 (H1N1)
# Assay type: cell-based, influenza virus
Property Measured: Viability of infected cells relative to aprotinin, Replicate 1

{"Sequence Input": "SLLGLLDVVKNTVGQTGLL [LS-AMP-A8]", "Val": 0.02555}
{"Sequence Input": "SLLGLLDVVKNTVGQT [LS-AMP-A10]", "Val": 0.0352}
{"Sequence Input": "SLFGLLDLVKNKVGQTGLL [LS-AMP-A2]", "Val": 0.06714}
{"Sequence Input": "SLLGLLDVVKSKVGQTGLL [LS-AMP-A18]", "Val": 0.03159}
{"Sequence Input": "SLLGLLDVVKNKVGQI [LS-AMP-A5]", "Val": 0.0613}
{"Sequence Input": "SLLGLLDVVKSKIGQTG [LS-AMP-A14]", "Val": 0.03385}
{"Sequence Input": "SLLGLLDVVKSKIGQTGLL [LS-AMP-A13]", "Val": 0.06606}

----------
# System: Staphylococcus epidermidis DSM 28319
# Test Method Notes: Antibacterial growth assay (OD600)
# Condition Details: OD600, medium = 100, MH II broth, 37 °C, peptide 200 µM mixed 50 µL + 50 µL with bacteria; Figure 7: 48 h; replicate column 2
Short version: Bacterial growth relative to medium, S. epidermidis, replicate 2 at least 70 is t, less is f.

{"Sequence Input": "SLFGLLDLVKSKVGQTGLL [LS-AMP-A1]", "Qualitative Label": "t"}
{"Sequence Input": "SLLGLLDVVKNTVGQTGLL [LS-AMP-A8]", "Qualitative Label": "t"}
{"Sequence Input": "LLDVVKSKIGQTGLL [LS-AMP-A16]", "Qualitative Label": "f"}
{"Sequence Input": "SLLGLLDVVKSKIGQT [LS-AMP-A15]", "Qualitative Label": "t"}
{"Sequence Input": "SLLGLLDVVKNTVGQ [LS-AMP-A11]", "Qualitative Label": "f"}
{"Sequence Input": "SLFGLLDLVKNKVGQTGLL [LS-AMP-A2]", "Qualitative Label": "t"}
{"Sequence Input": "SLLGLLDVVKSKIGQTGLL [LS-AMP-A13]", "Qualitative Label": "t"}
{"Sequence Input": "SLLGLLDVVKSKVGQTGLL [LS-AMP-A18]", "Qualitative Label": "t"}
{"Sequence Input": "SLLGLLDVVKSKIGQTG [LS-AMP-A14]", "Qualitative Label": "t"}
{"Sequence Input": "SLLGLLDVVKNKVGQIG [LS-AMP-A4]", "Qualitative Label": "f"}
{"Sequence Input": "DVVKSKVGQT [LS-AMP-A20]", "Qualitative Label": "f"}
{"Sequence Input": "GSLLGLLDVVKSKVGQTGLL [LS-AMP-A19]", "Qualitative Label": "t"}
{"Sequence Input": "SLLGLLDVVKNKVGQI [LS-AMP-A5]", "Qualitative Label": "f"}
{"Sequence Input": "SLLGLLDVVKNTVGQTG [LS-AMP-A9]", "Qualitative Label": "f"}
{"Sequence Input": "SLLGLLDVVKNKVGQIGLL [LS-AMP-A3]", "Qualitative Label": "t"}
